testedTarget: NDM-1 (Klebsiella pneumoniae)
Sequence (C7C422 29-270 limits assumed): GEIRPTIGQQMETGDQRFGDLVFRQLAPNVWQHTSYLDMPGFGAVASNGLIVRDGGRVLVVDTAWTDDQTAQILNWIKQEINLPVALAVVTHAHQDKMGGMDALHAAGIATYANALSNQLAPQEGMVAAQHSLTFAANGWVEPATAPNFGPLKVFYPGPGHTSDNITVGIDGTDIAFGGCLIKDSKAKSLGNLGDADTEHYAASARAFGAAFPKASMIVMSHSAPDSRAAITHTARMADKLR
measuredParameter: pIC50
The meaning of pIC50 here: minus log10 of the concentration in molar units.

Please respond with reported pIC50 (system NDM-1 (Klebsiella pneumoniae)) for Nc1ccc(S(=O)(=O)Nc2scnc2C(=O)O)cc1 . 5.74
